Record form. Attribute: LYMPHOCYTE. Fill in for each entry.
Organism: Rattus norvegicus
test-name: DrugMatrix - Regimen: Daily Repeat
Format: toxicity, organism-based, Sprague-Dawley
Parameters: regimen Daily Repeat, gender Male, age 6-8 weeks
stated-conditions: in vivo, iv, 0 mg/kg, 120 h, tissue Blood, dose level Control, time 5 day, vehicle 100 % SALINE
One number for each entry, in %.

// solved cases for LYMPHOCYTE follow
compound-structure-string | LYMPHOCYTE (%)
NCC[C@H](O)C(=O)N[C@@H]1C[C@H](N)[C@@H](O[C@H]2O[C@H](CN)[C@@H](O)[C@H](O)[C@H]2O)[C@H](O)[C@H]1O[C@H]1O[C@H](CO)[C@@H](O)[C@H](N)[C@H]1O | 90.17
CC[C@@]1(O)C(=O)OCc2c1cc1n(c2=O)Cc2cc3ccccc3nc2-1 | 93.17
CN(N=O)C(=O)N[C@@H](C=O)[C@@H](O)[C@H](O)[C@H](O)CO | 89.5

Suppose we examine the compound `CC1(C)S[C@@H]2[C@H](NC(=O)[C@H](NC(=O)N3CCNC3=O)c3ccccc3)C(=O)N2[C@H]1C(=O)O` ; what LYMPHOCYTE value has been reported?
88.83
